The reported numbers originate from patent US11787810B2.

system-name: human DGAT2 (hDGAT2) (Homo sapiens (Human), UniProt Q96PD7)
Sequence (Q96PD7 whole entry): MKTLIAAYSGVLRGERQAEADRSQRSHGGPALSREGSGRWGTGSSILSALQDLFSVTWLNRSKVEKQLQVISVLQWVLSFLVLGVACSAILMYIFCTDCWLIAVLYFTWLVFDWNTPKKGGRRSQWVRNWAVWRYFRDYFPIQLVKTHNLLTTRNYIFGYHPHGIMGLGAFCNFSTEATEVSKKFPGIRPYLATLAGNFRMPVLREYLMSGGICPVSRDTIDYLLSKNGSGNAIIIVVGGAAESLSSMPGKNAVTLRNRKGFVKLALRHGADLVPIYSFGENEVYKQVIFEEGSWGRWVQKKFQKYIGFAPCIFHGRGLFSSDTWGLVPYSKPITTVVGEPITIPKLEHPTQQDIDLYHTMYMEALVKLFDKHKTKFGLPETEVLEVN
test: DGAT2 enzymatic activity assay (13C18-triolein formation, LC/MS/MS)
Assay type: biochemical
measurement-conditions: hDGAT2 Sf-9 membrane prep, 25 μM diolein, 5 μM 13C oleoyl-CoA; read-out: Human DGAT2 IC50
pIC50: −log10 of the molar value.
parameter: pIC50

compound	system-name	pIC50
C[C@]1(NC(=O)c2cnc3c(-c4cccc(OC(F)F)c4)nn(C4CCCOC4)c3c2)CCS(=O)(=O)C1 (single isomer, unassigned) [Example 62a]	human DGAT2 (hDGAT2) (Homo sapiens (Human), UniProt Q96PD7)	7.23
CC1(NC(=O)c2cnc3c(-c4cccc(OC(F)F)c4)nn(C(C)(C)C(C)(C)O)c3c2)CS(=O)(=O)C1 [Example 129]	human DGAT2 (hDGAT2) (Homo sapiens (Human), UniProt Q96PD7)	7.01
CC(C)n1nc(-c2cccc(OC(F)F)c2)c2ncc(C(=O)NC(C)(C)C(C)O)cc21 (single isomer, unassigned) [Example 46a]	human DGAT2 (hDGAT2) (Homo sapiens (Human), UniProt Q96PD7)	7.82
CC(O)C(C)NC(=O)c1cnc2c(-c3cccc(OC(F)F)c3)nn(C(C)C)c2c1 (single isomer, unassigned) [Example 45c]	human DGAT2 (hDGAT2) (Homo sapiens (Human), UniProt Q96PD7)	6.30

[I] CCC(C)n1nc(-c2cccc(OC(F)F)c2)c2ncc(C(=O)NC3(C)CS(=O)(=O)C3)cc21 (single isomer, unassigned) [Example 66b]
[II] CC(O)C(C)n1nc(-c2cccc(OC(F)F)c2)c2ncc(C(=O)NC3(C)CS(=O)(=O)C3)cc21 (single isomer, unassigned) [Example 78b]
[III] CC(O)C(C)n1nc(-c2cccc(OC(F)F)c2)c2ncc(C(=O)NC3(C)CS(=O)(=O)C3)cc21 (single isomer, unassigned) [Example 78c]
Task for the reader: rank each entry by its pIC50, from the minimum upward. Please, when replying, give the labels in the order that was requested.
III, II, I

[1] CC(C)n1nc(-c2cccc(OC(F)F)c2)c2ncc(C(=O)NC3(C(C)O)CCOC3)cc21 (single isomer, unassigned) [Example 50c]
[2] C[C@]1(NC(=O)c2cnc3c(-c4cccc(OC(F)F)c4)cn(-c4ccc(F)cc4)c3c2)CCS(=O)(=O)C1 [Example 9]
// compare: 1 vs 2 , metric pIC50, want the smaller Kindly give the label for the entry you pick.
1
(1: 6.97, 2: 8.17)

[a] COC1(c2cccc(-c3nn(C(C)C)c4cc(C(=O)NC5(C)CS(=O)(=O)C5)cnc34)c2)CC1 [Example 128]
[b] CC1(C#N)CC(n2nc(-c3cccc(OC(F)F)c3)c3ncc(C(=O)NC4(C)CS(=O)(=O)C4)cc32)C1 (single isomer, unassigned) [Example 87a]
[c] CC(C)n1nc(-c2cccc(OC(F)F)c2)c2ncc(C(=O)NC3(CO)CCOC3)cc21 (single isomer, unassigned) [Example 39b]
Task for the reader: rank each entry by its pIC50, from the minimum upward. Please, when replying, give the labels in the order that was requested.
a, b, c
